- SYSTEM: MNK1 (Homo sapiens, UniProt Q9BUB5)
- Construct: recombinant kinase domains expressed in E. coli; fused on or other part: N-terminal GST tag, removed with PreScission protease before the test
- Sequence (Q9BUB5 1-424 isoform Q9BUB5-2): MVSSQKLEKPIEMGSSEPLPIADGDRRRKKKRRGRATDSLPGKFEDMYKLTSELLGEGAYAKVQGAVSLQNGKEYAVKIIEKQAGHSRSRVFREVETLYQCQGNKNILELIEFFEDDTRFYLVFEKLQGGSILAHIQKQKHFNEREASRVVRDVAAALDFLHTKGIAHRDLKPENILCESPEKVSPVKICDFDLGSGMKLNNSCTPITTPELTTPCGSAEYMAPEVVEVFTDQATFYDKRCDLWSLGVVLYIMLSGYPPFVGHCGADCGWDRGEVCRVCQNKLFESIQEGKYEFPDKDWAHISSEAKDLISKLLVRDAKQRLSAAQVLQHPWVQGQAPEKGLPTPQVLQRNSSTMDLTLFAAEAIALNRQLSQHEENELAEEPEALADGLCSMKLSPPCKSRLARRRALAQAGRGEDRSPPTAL
- ASSAY_NAME: In vitro MNK kinase assay (Caliper LabChip mobility shift), MNK1
- TEST_SETTINGS: enzymatic; 1.2 mM ATP
pIC50: −log10 of the molar value.
METRIC: pIC50

N#Cc1ccc(-c2cnc3ccc(-c4ccc(C(=O)N5CCN(c6ccncc6)CC5)cc4)cn23)cc1: > 7.00
Cc1cc(-c2cn3c(-c4ccc(C#N)cc4)cnc3cn2)ccc1C(=O)N1CCC(N)CC1: > 7.00
CC(=O)NC1CCN(C(=O)c2ccc(-c3cn4c(-c5ccc(Cl)cc5)cnc4cn3)cc2)CC1: > 6.00

Next item in the queue.
Quote pIC50 with test system MNK1 (Homo sapiens, UniProt Q9BUB5) for `CC(=O)Nc1cc(-c2ccc3ncc(-c4ccc(C#N)cc4)n3n2)ccc1C(=O)N1CCOCC1`
> 7.00
